List of Exp. dG values.
- testedOn: hA2BAR (Homo sapiens)
- Construct: host or cells: HEK-293 (HEK-293-A2B) cell membranes
- Sequence (P29275 1-332): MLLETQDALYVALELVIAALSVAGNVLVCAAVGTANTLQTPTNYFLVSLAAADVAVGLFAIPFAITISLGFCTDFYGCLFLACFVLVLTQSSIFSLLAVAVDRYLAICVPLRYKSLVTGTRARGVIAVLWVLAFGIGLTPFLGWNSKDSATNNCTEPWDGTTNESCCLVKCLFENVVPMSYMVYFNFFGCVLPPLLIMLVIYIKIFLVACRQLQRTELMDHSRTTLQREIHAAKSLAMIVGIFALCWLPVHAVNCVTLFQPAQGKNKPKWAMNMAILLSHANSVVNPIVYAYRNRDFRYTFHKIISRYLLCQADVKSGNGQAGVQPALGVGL
- assayName: Radioligand binding competition, [3H]DPCPX, membranes from HEK-293-A2B cells
- Design: unit not given here
- experimentalContext: experimental binding free energy, Supplementary Table S3; unit not given (errors in kcal/mol)

[
  {
    "compound": "CC1=C(C(=O)OC(C)C)C(c2ccco2)n2c(nc3cc(F)ccc32)N1 (stereo not shown) [16b]",
    "testedOn": "hA2BAR (Homo sapiens)",
    "Exp. dG": -11.61
  },
  {
    "compound": "CC1=C(C(=O)OC(C)C)C(c2cocn2)n2c(nc3cc(F)ccc32)N1 (stereo not shown) [18b]",
    "testedOn": "hA2BAR (Homo sapiens)",
    "Exp. dG": -11.2
  },
  {
    "compound": "CC1=C(C(=O)OC(C)C)C(c2cccs2)n2c(nc3cc(Cl)ccc32)N1 (stereo not shown) [16n]",
    "testedOn": "hA2BAR (Homo sapiens)",
    "Exp. dG": -8.286
  },
  {
    "compound": "CC1=C(C(=O)OC(C)C)C(c2ccco2)n2c(nc3cc(Cl)ccc32)N1 (stereo not shown) [16j]",
    "testedOn": "hA2BAR (Homo sapiens)",
    "Exp. dG": -11.31
  },
  {
    "compound": "CC1=C(C(=O)OC(C)C)C(c2ccsc2)n2c(nc3cc(F)ccc32)N1 (stereo not shown) [16h]",
    "testedOn": "hA2BAR (Homo sapiens)",
    "Exp. dG": -9.71
  },
  {
    "compound": "CC1=C(C(=O)OC(C)C)C(c2ccco2)n2c(nc3ccc(Cl)cc32)N1 (stereo not shown) [15j]",
    "testedOn": "hA2BAR (Homo sapiens)",
    "Exp. dG": -10.03
  },
  {
    "compound": "CCOC(=O)C1=C(C)Nc2nc3ccc(F)cc3n2C1c1cocn1 (stereo not shown) [17a]",
    "testedOn": "hA2BAR (Homo sapiens)",
    "Exp. dG": -10.02
  },
  {
    "compound": "CC1=C(C(=O)OC(C)C)C(c2ccoc2)n2c(nc3cc(Cl)ccc32)N1 (stereo not shown) [16l]",
    "testedOn": "hA2BAR (Homo sapiens)",
    "Exp. dG": -11.2
  },
  {
    "compound": "CC1=C(C(=O)OC(C)C)C(c2cccs2)n2c(nc3ccccc32)N1 (stereo not shown) [VI]",
    "testedOn": "hA2BAR (Homo sapiens)",
    "Exp. dG": -8.767
  },
  {
    "compound": "CCOC(=O)C1=C(C)Nc2nc3cc(F)ccc3n2C1c1ccoc1 (stereo not shown) [16c]",
    "testedOn": "hA2BAR (Homo sapiens)",
    "Exp. dG": -10.72
  },
  {
    "compound": "CCOC(=O)C1=C(C)Nc2nc3cc(F)ccc3n2C1c1ccsc1 (stereo not shown) [16g]",
    "testedOn": "hA2BAR (Homo sapiens)",
    "Exp. dG": -9.172
  },
  {
    "compound": "CC1=C(C(=O)OC(C)C)C(c2cocn2)n2c(nc3ccccc32)N1 (stereo not shown) [X, reference compound]",
    "testedOn": "hA2BAR (Homo sapiens)",
    "Exp. dG": -10.04
  },
  {
    "compound": "CC1=C(C(=O)OC(C)C)C(c2ccco2)n2c(nc3ccc(F)cc32)N1 (stereo not shown) [15b]",
    "testedOn": "hA2BAR (Homo sapiens)",
    "Exp. dG": -10.79
  },
  {
    "compound": "CCOC(=O)C1=C(C)Nc2nc3cc(F)ccc3n2C1c1ccco1 (stereo not shown) [16a]",
    "testedOn": "hA2BAR (Homo sapiens)",
    "Exp. dG": -11.15
  },
  {
    "compound": "CCOC(=O)C1=C(C)Nc2nc3cc(Cl)ccc3n2C1c1ccsc1 (stereo not shown) [16o]",
    "testedOn": "hA2BAR (Homo sapiens)",
    "Exp. dG": -8.235
  },
  {
    "compound": "CCOC(=O)C1=C(C)Nc2nc3ccc(F)cc3n2C1c1ccco1 (stereo not shown) [15a]",
    "testedOn": "hA2BAR (Homo sapiens)",
    "Exp. dG": -9.777
  },
  {
    "compound": "CCOC(=O)C1=C(C)Nc2nc3cc(Cl)ccc3n2C1c1ccoc1 (stereo not shown) [16k]",
    "testedOn": "hA2BAR (Homo sapiens)",
    "Exp. dG": -11.1
  },
  {
    "compound": "CCOC(=O)C1=C(C)Nc2nc3cc(Cl)ccc3n2C1c1ccco1 (stereo not shown) [16i]",
    "testedOn": "hA2BAR (Homo sapiens)",
    "Exp. dG": -11.01
  },
  {
    "compound": "CCOC(=O)C1=C(C)Nc2nc3ccc(F)cc3n2C1c1ccoc1 (stereo not shown) [15c]",
    "testedOn": "hA2BAR (Homo sapiens)",
    "Exp. dG": -9.361
  },
  {
    "compound": "CCOC(=O)C1=C(C)Nc2nc3ccccc3n2C1c1ccoc1 (stereo not shown) [III]",
    "testedOn": "hA2BAR (Homo sapiens)",
    "Exp. dG": -10.48
  },
  {
    "compound": "CCOC(=O)C1=C(C)Nc2nc3ccc(F)cc3n2C1c1ccsc1 (stereo not shown) [15g]",
    "testedOn": "hA2BAR (Homo sapiens)",
    "Exp. dG": -8.162
  },
  {
    "compound": "CC1=C(C(=O)OC(C)C)C(c2ccsc2)n2c(nc3ccc(F)cc32)N1 (stereo not shown) [15h]",
    "testedOn": "hA2BAR (Homo sapiens)",
    "Exp. dG": -8.34
  },
  {
    "compound": "CC1=C(C(=O)OC(C)C)C(c2cocn2)n2c(nc3ccc(Cl)cc32)N1 (stereo not shown) [17d]",
    "testedOn": "hA2BAR (Homo sapiens)",
    "Exp. dG": -9.528
  },
  {
    "compound": "CC1=C(C(=O)OC(C)C)C(c2ccco2)n2c(nc3ccccc32)N1 (stereo not shown) [II, reference compound]",
    "testedOn": "hA2BAR (Homo sapiens)",
    "Exp. dG": -11.53
  },
  {
    "compound": "CCOC(=O)C1=C(C)Nc2nc3cc(Cl)ccc3n2C1c1cocn1 (stereo not shown) [18c]",
    "testedOn": "hA2BAR (Homo sapiens)",
    "Exp. dG": -11
  },
  {
    "compound": "CC1=C(C(=O)OC(C)C)C(c2ccoc2)n2c(nc3ccc(F)cc32)N1 (stereo not shown) [15d]",
    "testedOn": "hA2BAR (Homo sapiens)",
    "Exp. dG": -10.36
  },
  {
    "compound": "CC1=C(C(=O)OC(C)C)C(c2cocn2)n2c(nc3cc(Cl)ccc32)N1 (stereo not shown) [18d]",
    "testedOn": "hA2BAR (Homo sapiens)",
    "Exp. dG": -11.17
  },
  {
    "compound": "CC1=C(C(=O)OC(C)C)C(c2ccoc2)n2c(nc3ccccc32)N1 (stereo not shown) [IV]",
    "testedOn": "hA2BAR (Homo sapiens)",
    "Exp. dG": -10.83
  },
  {
    "compound": "CCOC(=O)C1=C(C)Nc2nc3ccc(Cl)cc3n2C1c1cocn1 (stereo not shown) [17c]",
    "testedOn": "hA2BAR (Homo sapiens)",
    "Exp. dG": -10.35
  },
  {
    "compound": "CCOC(=O)C1=C(C)Nc2nc3ccccc3n2C1c1ccco1 (stereo not shown) [I]",
    "testedOn": "hA2BAR (Homo sapiens)",
    "Exp. dG": -10.8
  },
  {
    "compound": "CC1=C(C(=O)OC(C)C)C(c2ccoc2)n2c(nc3cc(F)ccc32)N1 (stereo not shown) [16d]",
    "testedOn": "hA2BAR (Homo sapiens)",
    "Exp. dG": -11
  },
  {
    "compound": "CC1=C(C(=O)OC(C)C)C(c2cccs2)n2c(nc3cc(F)ccc32)N1 (stereo not shown) [16f]",
    "testedOn": "hA2BAR (Homo sapiens)",
    "Exp. dG": -8.419
  },
  {
    "compound": "CCOC(=O)C1=C(C)Nc2nc3cc(F)ccc3n2C1c1cocn1 (stereo not shown) [18a]",
    "testedOn": "hA2BAR (Homo sapiens)",
    "Exp. dG": -10.68
  },
  {
    "compound": "CC1=C(C(=O)OC(C)C)C(c2ccsc2)n2c(nc3ccccc32)N1 (stereo not shown) [VIII]",
    "testedOn": "hA2BAR (Homo sapiens)",
    "Exp. dG": -10.27
  },
  {
    "compound": "CCOC(=O)C1=C(C)Nc2nc3ccccc3n2C1c1ccsc1 (stereo not shown) [VII]",
    "testedOn": "hA2BAR (Homo sapiens)",
    "Exp. dG": -10.26
  },
  {
    "compound": "CCOC(=O)C1=C(C)Nc2nc3ccc(Cl)cc3n2C1c1ccoc1 (stereo not shown) [15k]",
    "testedOn": "hA2BAR (Homo sapiens)",
    "Exp. dG": -9.987
  },
  {
    "compound": "CC1=C(C(=O)OC(C)C)C(c2cocn2)n2c(nc3ccc(F)cc32)N1 (stereo not shown) [17b]",
    "testedOn": "hA2BAR (Homo sapiens)",
    "Exp. dG": -11.07
  }
]
